protocol details: in vivo
test context: mouse, tumor/plasma
readout label: Kp at 4 h
Lab note: record just the number, no unit beside it.

Which measured Kp at 4 h value corresponds to "C=CC(=O)N1CCC(Oc2cc3c(Nc4ccc(Cl)c(Cl)c4F)ncnc3cc2OC)CC1" ? 0.36
